Target: T1, His-tagged Cyclophilin A (CypA) (UniProt P62937 1-165)
T1 construct: Cyclophilin A (CypA), peptidyl-prolyl isomerase; Uniformly 15N-labelled for the NMR experiments, unlabelled elsewhere; also called CypA wild type; 15N-CypA; source: bacteria, IPTG-induced, purified (His-trap HP, size exclusion chromatography)
T1 sequence (P62937 whole entry): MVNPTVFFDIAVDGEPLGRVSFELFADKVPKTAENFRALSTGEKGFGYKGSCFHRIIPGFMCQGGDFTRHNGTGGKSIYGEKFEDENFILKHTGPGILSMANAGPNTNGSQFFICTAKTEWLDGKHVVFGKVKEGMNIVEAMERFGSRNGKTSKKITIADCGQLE
Test: EnSpire label-free direct binding assay; direct binding of CypA peptides, CypA or CypA R55A with AIF(370-394) or AIF(Δ1-121); details (who was immobilised) in the Supplementary Information
Settings: both partners purified

[
  {
    "BINDER": "QSVGVSSGKLLIKLKDGRKVETDHI (peptide, UniProt O95831 370-394, looked up, also called AIF peptide; source: synthetic peptide) [AIF(370-394) synthetic peptide]",
    "UNIT_STRING": "nM",
    "Kd": 3000
  }
]
